The reader will find reported growth values listed item by item below.
Test system: HOP-92 NSCLC
testProtocol: NCI-60 one-dose screen, 48 h (100 = growth as untreated, 0 = no growth, -100 = all killed)
testConditions: 1 µM
The panel holds about 83,000 compounds, 20% with a hit somewhere; the sample as a whole holds those more often.
A number alone suffices; assume %.

CC/C(=C(\c1ccc(O)cc1)c1ccc(OCCN(C)C(=O)CCOCCNC(=O)c2ccc3c(c2)CN([C@@H]2CCC(=O)NC2=O)C3=O)cc1)c1ccccc1
37.9

Q. Give growth for the following molecule: `CC/C(=C(\c1ccc(O)cc1)c1ccc(OCCN(C)C(=O)COCCNC(=O)Cc2ccc3c(c2)CN([C@@H]2CCC(=O)NC2=O)C3=O)cc1)c1ccccc1`
A. 8.46

Q. Respond only with growth recorded for `CC/C(=C(\c1ccc(O)cc1)c1ccc(OCCNC)cc1)c1ccccc1`
A. 80.2

Q. Output measured growth for this item: `CC/C(=C(/c1ccc(O)cc1)c1ccc(OCCN(C)C(=O)CCOCCNC(=O)Cc2ccc3c(c2)CN([C@@H]2CCC(=O)NC2=O)C3=O)cc1)c1ccccc1`
A. 22.2

----------
Test system: CCRF-CEM leukemia
testProtocol: NCI-60 one-dose screen, 48 h (100 = growth as untreated, 0 = no growth, -100 = all killed)
testConditions: 10 µM unless noted
This is part of a sample that, as a whole, favours compounds with a hit. Of some 83,000 tested, about 20% had one in any assay.
Tag: class 1 if measured growth is not below 30%, class 0 if it is.

O=C1Nc2cc(-c3ccc(NS(=O)(=O)c4ccc(-c5ccccc5)cc4)cc3)ccc2/C1=C/c1ccc[nH]1
class 1

Q. Hi, just wondering whether CCN1C(=O)N(CC)C2NNC(Sc3c(C(=O)O)c4ccccc4n(CC(C)C)c3=O)=NC21 (centres undefined) shows growth of 30% or higher.
A. class 0

Q. Say whether `O=C1Nc2ccccc2/C1=C/C(=O)c1cc2ccccc2oc1=O` shows growth of 30% or more.
A. class 1

Q. Please tell me: is the molecule `CC(=O)c1c2c(c3ccc4c5ccccc5ccc4n13)C(=O)c1ccccc1C2=O` at or over 30% in terms of growth?
A. class 1

Q. Check if growth >= 30% (inclusive). Item: `O=C(CSc1nc2c(c(=O)[nH]1)CCCC2)Nc1ccccc1C(=O)O`
A. class 1

Q. Evaluate `Nc1nnc(-c2cncc(Br)c2)c(-c2c[nH]c3ccc(Cl)cc23)n1` : growth at minimum 30%?
A. class 1

Q. // inclusive: growth at least 30%? input: `Cc1ccc(N=Nc2c(N)nn3c(-c4cc5ccccc5oc4=O)ccnc23)cc1`
A. class 1

----------
System: NCI-H226 lung
testProtocol: NCI-60 one-dose screen, 48 h
testConditions: 10 µM unless noted
The panel holds about 83,000 compounds, 20% with a hit somewhere; the sample as a whole holds those more often. Active and inactive are the calls of the source. How the source made its calls: active means growth percent below 10; inactive means the rest.
Response enum: class 1 = active, class 0 = inactive

As a guide, the following entries are already answered.
Clc1ccc(-c2nc3ccc(-c4nnc(SCc5ccccc5)o4)cc3[nH]2)cc1
class 0
COc1ccc(C(=O)C[n+]2cccc3c4ccccc4ccc32)cc1
class 0
COc1cc(/C=C/C(=O)c2cnn(-c3cc(=O)[nH]c4ccc(Br)cc34)c2C)cc(OC)c1OC
class 1

Q. Hey, what did the test say about `COc1cc(-c2ccc3ncnc(N4CCc5ccc(Cl)cc54)c3c2)cnc1Cl` ?
A. class 0

Q. Hi, do you know how COc1cc(C2CC(c3cc(OC)c(OC)c(OC)c3)=Nc3c(N)nc(N)nc3N2)ccc1Oc1nc(Nc2ccc(F)cc2)nc(N(C)C)n1 (stereo not given) came out in this test?
A. class 0
